- Test system: Echinochloa crus-galli (ECHCG)
- TEST METHOD NOTES: Pre-emergence biological efficacy, glasshouse, 1000 g/ha, evaluated after 13 days (100=total damage to plant; 0=no damage to plant)
- Type: in vivo
- APPLIED CONDITIONS: Echinochloa crus-galli, 312 h, rate 1,000 g/ha, read-out: Percentage damage caused to weed species, pre-emergence, ECHCG
- Description: Seeds of Alopecurus myosuroides (ALOMY), Setaria faberi (SETFA), Echinochloa crus-galli (ECHCG), Solanum nigrum (SOLNI), Amaranthus retroflexus (AMARE) and Ipomoea hederaceae (IPOHE) were sown in standard soil in pots. […] The test plants were then grown under controlled conditions in the glasshouse (at 24/16° C., day/night; 14 hours light; 65% humidity) and watered twice daily. […]
QUANTITY MEASURED: pest or weed control at 1000 g/ha (%)
The reply should contain only the number, in %.

These solved cases illustrate the format of a correct answer.
Request: # value lookup — system Echinochloa crus-galli (ECHCG), readout pest or weed control at 1000 g/ha, item CCOCn1cc(C)c2c(C(=O)OC)nc(-c3ccc(Cl)c(OC)c3F)nc21
Result: 0

Request: Follow-up entry: COC(=O)c1nc(-c2ccc(Cl)c(F)c2)nc2[nH]c(C)cc12
Result: 0

Request: And then COC(=O)c1nc(-c2ccc(Cl)c(F)c2)nc2c1ccn2Cc1ccccc1 , what is it?
Result: 0

Request: Quick one: O=C(O)c1nc(-c2ccc(Cl)c(F)c2)nc2c1ccn2Cc1ccccc1
Result: 0

Request: Lookup COC(=O)c1nc(-c2ccc(Cl)c(OC)c2F)cc2c1c(C)cn2C(C)=O
Result: 0

---
Request: API: value(readout= pest or weed control at 1000 g/ha, system= Echinochloa crus-galli (ECHCG), query= CCCCOCCOC(=O)c1nc(-c2ccc(Cl)c(OC)c2F)cc2[nH]cc(C)c12 )
Result: 20

###

- Test system: Setaria faberi (SETFA)
- TEST METHOD NOTES: Pre-emergence biological efficacy, glasshouse, 1000 g/ha, evaluated after 13 days (100=total damage to plant; 0=no damage to plant)
- Type: in vivo
- APPLIED CONDITIONS: Setaria faberi, 312 h, rate 1,000 g/ha, read-out: Percentage damage caused to weed species, pre-emergence, SETFA
QUANTITY MEASURED: pest or weed control at 1000 g/ha (%)
Number only, in %; omit the unit.

Request: State the recorded pest or weed control at 1000 g/ha for this entry: COC(=O)c1nc(-c2ccc(Cl)c(OC)c2F)nc2nc3ccccc3nc12 [Compound 125-76]
Result: 20

Request: Cool, now COC(=O)c1nc(-c2ccc(Cl)c(OC)c2F)nc2c1NC(c1ccccc1)C(c1ccccc1)N2 (stereo not drawn) [Compound 91-204]
Result: 0

Moving on to the next compound.
Request: Any idea what its pest or weed control at 1000 g/ha is? The compound is COC(=O)c1nc(-c2ccc(Cl)c(N(C)C)c2F)nc2[nH]c(C)c(C)c12 [Compound 1-120]
Result: 0

###

- Test system: Amaranthus retroflexus (AMARE)
- TEST METHOD NOTES: Pre-emergence biological efficacy, glasshouse, 1000 g/ha, evaluated after 13 days (100=total damage to plant; 0=no damage to plant)
- Assay type: in vivo
- APPLIED CONDITIONS: Amaranthus retroflexus, 312 h, rate 1,000 g/ha, read-out: Percentage damage caused to weed species, pre-emergence, AMARE
QUANTITY MEASURED: pest or weed control at 1000 g/ha (%)
Kindly provide the numeric value in % only, without the unit symbol.

Past entries and their recorded results:
Request: Kindly state the measured pest or weed control at 1000 g/ha obtained for COC(=O)c1nc(-c2ccc(Cl)c(OC)c2F)cc2c1c(C)cn2C(=O)OC with Amaranthus retroflexus (AMARE).
Result: 0

Request: Please answer likewise for CCOCn1cc(C)c2c(C(=O)OC)nc(-c3ccc(Cl)c(OC)c3F)nc21
Result: 0

Request: And then COC(=O)c1nc(C2CC2)nc2c1cc(C)n2Cc1ccccc1[N+](=O)[O-] , what is it?
Result: 0

Request: Entry Cc1cc2c(C(=O)O)nc(-c3ccc(Cl)c(F)c3)nc2n1CC1CC1 please
Result: 100

Request: Same lookup for COC(=O)c1nc(-c2ccc(Cl)c(OC)c2F)nc2c1cc(C)n2Cc1ccccc1[N+](=O)[O-] , please.
Result: 10

Request: Please give the result for COc1ccc(Cn2cc(C)c3c(C(=O)O)nc(-c4ccc(Cl)c(OC)c4F)nc32)cc1 too.
Result: 0

Request: // query: COC(=O)c1nc(-c2ccc(Cl)c(OC)c2F)nc2c1c(C)cn2Cc1ccc(C(F)(F)F)o1
Result: 0

Request: Please answer likewise for COc1c(Cl)ccc(-c2nc(C(=O)O)c3c(C)cn(Cc4ccccc4[N+](=O)[O-])c3n2)c1F
Result: 10

---
Request: Return pest or weed control at 1000 g/ha measured with Amaranthus retroflexus (AMARE) given this compound: O=C(O)c1nc(Cl)nc2[nH]ccc12
Result: 0

Request: Also check CCCCCC(C)OC(=O)c1nc(-c2ccc(Cl)c(OC)c2F)cc2[nH]cc(C)c12 (stereo not shown)
Result: 10

Request: Follow-up entry: CCOCCOC(=O)c1nc(-c2ccc(Cl)c(OC)c2F)cc2[nH]cc(C)c12
Result: 70

Request: Repeat for the following compound: COc1c(Cl)ccc(-c2nc(C(=O)O)c3c(C)cn(C(C)c4ccccc4)c3n2)c1F (stereo not shown)
Result: 0

Request: Moving on to C=CCOC(=O)c1nc(-c2ccc(Cl)c(OC)c2F)nc2[nH]cc(C)c12
Result: 0

Request: What about this compound? COC(=O)c1nc(-c2ccc(Cl)c(OC)c2F)nc2[nH]c(-c3ccccc3)c(C)c12
Result: 0

Request: And then COC(=O)c1nc(Cl)cc2[nH]cc(Cl)c12 , what is it?
Result: 0
